target: HCV NS5B (Hepatitis C virus genotype 1b (strain HC-J4), UniProt O92972); experiment: biochemical; type: biochemical; conditions: 100 nM enzyme, [3H]GTP incorporation, 2 h at 25° C.; read-out: IC50 (μM) Enzymatic assay
Sequence (O92972 2420-3010 limits assumed): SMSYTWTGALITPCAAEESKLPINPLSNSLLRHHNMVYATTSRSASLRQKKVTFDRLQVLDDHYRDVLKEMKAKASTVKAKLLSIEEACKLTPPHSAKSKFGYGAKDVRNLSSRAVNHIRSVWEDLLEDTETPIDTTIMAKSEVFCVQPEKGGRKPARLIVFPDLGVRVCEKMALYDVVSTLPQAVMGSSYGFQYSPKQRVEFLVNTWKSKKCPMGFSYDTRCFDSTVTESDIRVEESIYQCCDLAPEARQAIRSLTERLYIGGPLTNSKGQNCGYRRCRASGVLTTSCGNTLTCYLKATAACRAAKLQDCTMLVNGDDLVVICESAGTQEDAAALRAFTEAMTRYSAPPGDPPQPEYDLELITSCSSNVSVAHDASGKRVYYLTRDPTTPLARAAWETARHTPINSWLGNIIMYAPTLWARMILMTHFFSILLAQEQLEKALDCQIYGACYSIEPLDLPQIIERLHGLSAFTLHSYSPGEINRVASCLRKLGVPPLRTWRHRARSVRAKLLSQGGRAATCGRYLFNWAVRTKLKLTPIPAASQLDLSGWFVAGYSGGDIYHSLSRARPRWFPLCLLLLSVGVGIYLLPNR
experimental_readout: IC50 (µM)

INSERT INTO assay_data (molecule, experimental_readout, result_unit, number) VALUES
  ('COc1ccc(-c2c(C3CCCCC3)c3ccc4cc3n2CC(=O)NCCCCN(C)S(=O)(=O)NC4=O)cc1 [Cpd 25]', 'IC50', 'µM', 0.18),
  ('COc1ccc(Br)c(COc2ccc(-c3c(C4CCCCC4)c4ccc5cc4n3CC(=O)NCCCCCCNC5=O)cc2)c1 [Cpd 9]', 'IC50', 'µM', 13),
  ('O=C1Cn2c(-c3ccoc3)c(C3CCCCC3)c3ccc(cc32)C(=O)NCCCCCCN1 [Cpd 2]', 'IC50', 'µM', 9.5),
  ('O=C1Cn2c(-c3ccc(O)cc3)c(C3CCCCC3)c3ccc(cc32)C(=O)NCCCCCCN1 [Cpd 8]', 'IC50', 'µM', 2.79),
  ('COc1ccc(-c2c(C3CCCCC3)c3ccc4cc3n2CC(=O)NCCN(C)CCNS(=O)(=O)NC4=O)cc1 [Cpd 27]', 'IC50', 'µM', 0.44),
  ('O=C1Cn2c(-c3ccc(OCc4cc(N5CCCC5=O)ccc4N4CCOCC4)cc3)c(C3CCCCC3)c3ccc(cc32)C(=O)NCC/C=C\CCN1 [Cpd 11]', 'IC50', 'µM', 0.45),
  ('CN1C/C=C\CNC(=O)Cn2c(-c3ccc(OCc4cc(N5CCCC5=O)ccc4N4CCN(S(C)(=O)=O)CC4)cc3F)c(C3CCCCC3)c3ccc(cc32)C(=O)NS1(=O)=O [Cpd 19]', 'IC50', 'µM', 0.042);

====

Measured IC50 values are reported for all entries that follow.
molecular target: HCV NS5B (Hepatitis C virus genotype 1b (strain HC-J4)); experiment: biochemical; assay type: biochemical; conditions: 100 nM enzyme, [3H]GTP incorporation, 2 h at 25° C.; read-out: IC50 (μM) Enzymatic assay
experimental_readout: IC50 (µM)

INSERT INTO results (compound, tested_target, experimental_readout, number) VALUES
  ('CC(=O)Nc1ccc(N2CCN(S(C)(=O)=O)CC2)c(COc2ccc(-c3c(C4CCCCC4)c4ccc5cc4n3CC(=O)NCC/C=C\CCNC5=O)cc2)c1 [Cpd 5]', 'HCV NS5B (Hepatitis C virus genotype 1b (strain HC-J4))', 'IC50', 0.29),
  ('Cc1nc(C)c(-c2ccc3cc(-c4c(C5CCCCC5)c5ccc6cc5n4CC(=O)NCC/C=C\CCNC6=O)ccc3n2)s1 [Cpd 17]', 'HCV NS5B (Hepatitis C virus genotype 1b (strain HC-J4))', 'IC50', 2.7),
  ('CS(=O)(=O)N1CCN(c2ccc([N+](=O)[O-])cc2COc2ccc(-c3c(C4CCCCC4)c4ccc5cc4n3CC(=O)NCC/C=C\CCNC5=O)cc2)CC1 [Cpd 3]', 'HCV NS5B (Hepatitis C virus genotype 1b (strain HC-J4))', 'IC50', 1.1),
  ('Cc1nc(C)c(-c2ccc3cc(-c4c(C5CCCCC5)c5ccc6cc5n4CC(=O)NCC/C=C\CS(=O)(=O)NC6=O)ccc3n2)s1 [Cpd 18]', 'HCV NS5B (Hepatitis C virus genotype 1b (strain HC-J4))', 'IC50', 0.04),
  ('CN1CC=CCCNC(=O)Cn2c(-c3ccoc3)c(C3CCCCC3)c3ccc(cc32)C(=O)NS1(=O)=O [Cpd 29]', 'HCV NS5B (Hepatitis C virus genotype 1b (strain HC-J4))', 'IC50', 0.051),
  ('CN1CCCCCNC(=O)Cn2c(-c3ccc(Cl)cc3)c(C3CCCCC3)c3ccc(cc32)C(=O)NS1(=O)=O [Cpd 21]', 'HCV NS5B (Hepatitis C virus genotype 1b (strain HC-J4))', 'IC50', 0.19),
  ('CN1C/C=C\CN(C)S(=O)(=O)NC(=O)c2ccc3c(C4CCCCC4)c(-c4ccc(Cl)cc4)n(c3c2)CC1=O [Cpd 23]', 'HCV NS5B (Hepatitis C virus genotype 1b (strain HC-J4))', 'IC50', 0.45),
  ('O=C1Cn2c(-c3ccoc3)c(C3CCCCC3)c3ccc(cc32)C(=O)NCC/C=C\CCN1 [Cpd 1]', 'HCV NS5B (Hepatitis C virus genotype 1b (strain HC-J4))', 'IC50', 2.2),
  ('CS(=O)(=O)N1CCN(c2ccc(N3CCCC3=O)cc2COc2ccc(-c3c(C4CCCCC4)c4ccc5cc4n3CC(=O)NCC/C=C\CCNC5=O)cc2)CC1 [Cpd 12]', 'HCV NS5B (Hepatitis C virus genotype 1b (strain HC-J4))', 'IC50', 0.36);

====

Target: HCV NS5B (Hepatitis C virus genotype 1b (strain HC-J4), UniProt O92972)
Assay: biochemical
Format: biochemical
Conditions: 100 nM enzyme, [3H]GTP incorporation, 2 h at 25° C.; read-out: IC50 (μM) Enzymatic assay
Source text: The cDNA encoding NS5B amino acid 1-570 (HC-J4, genotype 1b, pCV-J4L6S, genebank accession number AF054247) was subcloned into the Nhe I and Xho I restriction sites of pET-21b. […] The NS5B expression construct was transformed into E. coli BL21(DE3) (Novagen, Madison, Wis.). […] When the pre-culture reached an optical density of 0.6 measured at 600 nm, it was transferred to fresh LB-medium supplemented with ampicillin, at a ratio of 1:200. […]
IC50 listing for selected compounds.
experimental_readout: IC50 (µM)

INSERT INTO results (molecular_string, number) VALUES
  ('CS(=O)(=O)N1CCN(c2ccc(N3CCCC3=O)cc2COc2ccc(-c3c(C4CCCCC4)c4ccc5cc4n3CC(=O)NCC/C=C\CCNC5=O)c(F)c2)CC1', 1.58),
  ('COc1ccc(-c2ccc(Cl)cc2)c(-c2ccc3cc(-c4c(C5CCCCC5)c5ccc6cc5n4CC(=O)NCC/C=C\CCNC6=O)ccc3n2)c1', 1.44),
  ('CS(=O)(=O)N1CCN(c2ccc(N)cc2COc2ccc(-c3c(C4CCCCC4)c4ccc5cc4n3CC(=O)NCC/C=C\CCNC5=O)cc2)CC1', 0.27);
